Ref: patent US6512097

- EXPERIMENTAL SYSTEM: T1, c-erbB-2 ECD with a Ser-Gly-His6 C-terminal fusion (UniProt P04626 23-652)
- T1 construct: extracellular domain; Expressed from CHO cells, IMAC purified; coupled to a CM5 chip, coated on plates, or biotinylated with NHS-LC-biotin; also called c-erbB-2 extracellular domain; biotinylated c-erbB-2 ECD
- ASSAY PROTOCOL: SPR BIAcore
- Description: All assays were performed in triplicate. Briefly, […] of radioiodinated sFv was added to 5×10^6 SK-OV cells in the presence of increasing concentrations of unlabeled sFv from the same preparation. After a 30 minute incubation at 20° C., the samples were washed with PBS at 4° C. and centrifuged at 500 g. The amount of labeled sFv bound to the cells was determined by counting the pellets in a gamma counter and the K_a, and K_d were calculated using the EBDA program (V 2.0, G. A. McPherson, 1983). […]
METRIC: pKd
The meaning of pKd here: minus log10 of the concentration in molar units.

INSERT INTO measurements (binder, reported_measurement) VALUES
  ('C6H1 (scFv) QVQLVESGAEVKKPRESLKISCKGSGYSFTSYEIAWVRQMPGKGLEYMGLIYPGDSDTKYSPSFQGQVTISVDKSVSTAYLQWSSLKPSDTAMYYCARHDVGYCSSSNCAKWPEYFQHWGQGTLVTVSSGGGGSGGGGSGGGGSQSVLTQPPSVSAAPGQKVTISCSGSSSNIGNNYVSWYQQLPGTAPKLLIYGHTNRPAGVPDRFSGSKSGTSASLAISGFRSEDEADYYCAAWDDSLSGWVFGGGTKLTVLG', 8.23);

Now let's try a different one.
Query :: So what does the record say about pKd for C6H1L1 (scFv) QVQLVESGAEVKKPRESLKISCKGSGYSFTSYEIAWVRQMPGKGLEYMGLIYPGDSDTKYSPSFQGQVTISVDKSVSTAYLQWSSLKPSDTAMYYCARHDVGYCSSSNCAKWPEYFQHWGQGTLVTVSSGGGGSGGGGSGGGGSQSVLTQPPSVSGAPGQWVTISCSGSSSNIGNNYVSWYQQLPGTAPKLLIYDNNKRPSGVPDRFSGSQSGTSASLAISGLRSEDEADYYCAAWDDSLSGWVFGGGTKLTVLG ?
Result :: 7.82
